Source of measurements: PubChem BioAssay (NCI)

# Lookup of reported TGI keyed by entry
test system: OVCAR-3 ovarian; test: NCI tumour cell line growth inhibition, 48 h

Consider the reported TGI for these compounds:
compound	TGI
O=c1cc(-c2ccccc2)oc2cc(OCCSCCCCCCCCCCSCCOc3ccc4c(=O)cc(-c5ccccc5)oc4c3)ccc12	> 100 µM
O=C1OCc2cccc3c2-c2c1cccc2C(=O)OC3	> 100 µM
Cn1c2c(c3ccccc31)CCN(CCCCN1CCN(c3cccc(Cl)c3)CC1)C2=O	34 µM
O=C([O-])c1ccc(C(=O)[O-])cc1.O=C([O-])c1ccc(C(=O)[O-])cc1.[Mo+2].[Mo+2]	> 100 µM

### Prompt Item COc1ccc(C(=O)COc2cccc(/C=C3\CSc4ccc(C)cc4C3=O)c2)cc1 with OVCAR-3 ovarian - TGI?
### Response 57.6 µM

### Prompt Try this compound too: O=C(CC(=O)C1CCOC1=O)C(=O)Nc1ccc(Cl)cc1Cl (stereo unspecified)
### Response > 100 µM

### Prompt What do we get for C=C(Cl)C(=C)CCC(Cl)C(C)C (stereo unspecified) ?
### Response > 100 µM

###

system: DMS 114 small cell lung; test: NCI tumour cell line growth inhibition, 48 h
reported-endpoint: TGI

molecule	TGI
O=C1/C(=C/c2ccccc2)CN(C(=O)OCc2ccccc2)C/C1=C\c1ccccc1	21 µM
COc1ccc(C(=O)/C=C/c2ccc(OCC(=O)N3CCN(c4ccccc4)CC3)cc2)cc1	> 100 µM
CN(C)c1n/c(=N/c2ncn[nH]2)ss1	> 100 µM

### Prompt Field: TGI (DMS 114 small cell lung). Entry: CC(C)C(/C=C/c1ccc(Br)cc1)=N\NC(N)=O
### Response > 100 µM

### Prompt Check O=C(NO)C(=O)Nc1ccc(Cl)cc1[N+](=O)[O-] too.
### Response > 100 µM

###

test system: MDA-MB-435; experiment: NCI tumour cell line growth inhibition, 48 h
# cutoff 40 µM applies to TGI; >= gives Met, < gives Not met

These recorded examples may help you get a feel for the data.
molecule	test-target	qualitative-label
NNc1[nH]c(=S)[nH]c1C(N)=O	MDA-MB-435	Met
C/C(Cc1ccc(Cl)cc1)=C(/c1ccc(Cl)cc1)c1ccc(OCCN(C)C)cc1	MDA-MB-435	Not met
COc1ccc(C(=O)COc2cccc(/C=C3\CSc4ccc(C)cc4C3=O)c2)cc1	MDA-MB-435	Met
CN(CCCl)c1ccc(/C=C/C2=[N+](C)c3ccccc3C2(C)C)cc1	MDA-MB-435	Not met
COc1c(O)c2c(=O)cc(OC)c3c4c(OC)cc(=O)c5c(O)c(OC)c6c(c(c1C(C(C)=O)C6C(C)O)c23)c54 (stereo not given)	MDA-MB-435	Not met
Cc1ccc(S(=O)(=O)N2CCCC2C(=O)O[C@H]2CC[C@H]3CC=C[C@H]32)cc1 (stereo not given in full)	MDA-MB-435	Met

### Prompt Record CSc1ccc(/C=C/c2ccnc3ccccc23)cc1 ; criterion: TGI no lower than 40 µM. Met?
### Response Not met

### Prompt Please give the result for Cc1ccc(/C=C/C(=O)c2cc(CN(C)C)c(O)c(CN(C)C)c2)cc1 too.
### Response Met

### Prompt Do the same for CN1CCC23c4c5ccc(O)c4OC2c2[nH]c4ccccc4c2CC3(O)C1C5 (stereo not given) please
### Response Not met

### Prompt Moving on to the next molecule: NC(CCOCCP(=O)(O)CCOCCC(N)C(=O)O)C(=O)O (stereo not given)
### Response Met
